- TEST SYSTEM: FES Catalytic Domain (Homo sapiens, UniProt P07332)
- Construct: For all of them, we expressed and purified the catalytic domain separately; His-tag; made in house; host or cells: Escherichia coli
- Sequence (P07332 561-822 limits assumed): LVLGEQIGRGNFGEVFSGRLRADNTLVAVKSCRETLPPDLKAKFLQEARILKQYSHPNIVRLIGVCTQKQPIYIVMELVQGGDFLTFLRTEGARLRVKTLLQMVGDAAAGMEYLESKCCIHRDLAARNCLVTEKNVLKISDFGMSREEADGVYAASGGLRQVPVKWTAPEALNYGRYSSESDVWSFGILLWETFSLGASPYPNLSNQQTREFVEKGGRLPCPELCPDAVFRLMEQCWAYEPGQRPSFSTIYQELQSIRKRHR
- TEST DESCRIPTION: Differential Scanning Fluorimetry (DSF) Tm shift
- Assay type: binding
- EXPERIMENTAL SETUP: 2 µM protein, 10 µM inhibitor, average of 3 experiments, each in duplicate
OBSERVED PROPERTY: Melting temperature (Tm) shift (degrees Celcius)
Numeric only. Scale: degrees Celcius

Input: Recorded Melting temperature (Tm) shift for O=C1c2ccccc2-c2n[nH]c3cccc1c23 , please?
Output: 2.6

Input: Proceed to O=C1c2ccccc2-c2nc3nnnn3nc21
Output: 0.0

Input: Same lookup for c1nc2nc(Nc3ccc(N4CCOCC4)cc3)nc(NC3CCCCC3)c2[nH]1 , please.
Output: 4.5

Input: Do the same for Cl.Cl.O=S(=O)(NCCNC/C=C/c1ccc(Br)cc1)c1cccc2cnccc12 [H-89, Dihydrochloride] please
Output: 0.4

Input: Further, for CCN(CC)C(=O)c1ccc(Nc2nc(OCC3CCCCC3)c3[nH]cnc3n2)cc1 ?
Output: 2.8

Input: Next record, please: Cc1[nH]c(/C=C2\C(=O)Nc3ccc(S(=O)(=O)N(C)c4cccc(Cl)c4)cc32)c(C)c1C(=O)N1CCN(C)CC1
Output: 0.6

Input: Repeat for the following compound: CN[C@@H]1C[C@H]2O[C@@](C)([C@@H]1OC)n1c3ccccc3c3c4c(c5c6ccccc6n2c5c31)C(=O)N[C@@H]4O
Output: 5.2

Input: Another: CS(=O)(=O)O.Cn1cc(C2=C(c3cn(CCCSC(=N)N)c4ccccc34)C(=O)NC2=O)c2ccccc21
Output: 1.0

Input: Moving on to O=C(Nc1cccc(Nc2nccc(Nc3cccc(C(F)(F)F)c3)n2)c1)C1CC1
Output: 0.2

Input: Same lookup for CCN(CC)CCNC(=O)c1c(C)[nH]c(/C=C2\C(=O)Nc3ccc(Cl)cc32)c1C , please.
Output: 2.8

Input: Same again, this time with CC[C@@H](CO)Nc1nc(NCc2ccccc2)c2ncn(C(C)C)c2n1 (single isomer, unassigned) [Roscovitine, (S)-Isomer]
Output: 1.2
